Molecular target: T1, TNFR1 (Homo sapiens, UniProt P19438)
T1 chain: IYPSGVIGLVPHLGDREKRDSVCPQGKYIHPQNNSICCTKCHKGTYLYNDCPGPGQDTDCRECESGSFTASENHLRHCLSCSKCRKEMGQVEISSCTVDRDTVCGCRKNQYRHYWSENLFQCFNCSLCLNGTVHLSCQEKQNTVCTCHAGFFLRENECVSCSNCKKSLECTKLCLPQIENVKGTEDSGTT
Assay: yeast display SC50
assay-readout: apparent Kd (screen) (nM)

a = E54V (designed binder) SMEEEVEKAAKEYEKKKKEAIEKHLEKLKAKDKEAAERFLKELEEAAKEYAKDVAKTMSEEEAKRRAKKYKEKVLLSELSEEEQKEIKEAEEKLVRTILKYVEEAAK
b = E54N (designed binder) SMEEEVEKAAKEYEKKKKEAIEKHLEKLKAKDKEAAERFLKELEEAAKEYAKDNAKTMSEEEAKRRAKKYKEKVLLSELSEEEQKEIKEAEEKLVRTILKYVEEAAK
Task item: Returns: the argument ( a or b ) having the larger apparent Kd (screen). Lab note: record the label of whichever item you select.
Reply: a
(a: 20.2 nM, b: 12.5 nM)

The measurements presented in this section are drawn from paper PMC12416549.
